All figures here come from ChEMBL document CHEMBL3991601.

- system_under_test: Glycogen synthase kinase-3 alpha (Homo sapiens); also: in the data inactive means no Kd found up to 30 µM
- Sequence (P49840 whole entry): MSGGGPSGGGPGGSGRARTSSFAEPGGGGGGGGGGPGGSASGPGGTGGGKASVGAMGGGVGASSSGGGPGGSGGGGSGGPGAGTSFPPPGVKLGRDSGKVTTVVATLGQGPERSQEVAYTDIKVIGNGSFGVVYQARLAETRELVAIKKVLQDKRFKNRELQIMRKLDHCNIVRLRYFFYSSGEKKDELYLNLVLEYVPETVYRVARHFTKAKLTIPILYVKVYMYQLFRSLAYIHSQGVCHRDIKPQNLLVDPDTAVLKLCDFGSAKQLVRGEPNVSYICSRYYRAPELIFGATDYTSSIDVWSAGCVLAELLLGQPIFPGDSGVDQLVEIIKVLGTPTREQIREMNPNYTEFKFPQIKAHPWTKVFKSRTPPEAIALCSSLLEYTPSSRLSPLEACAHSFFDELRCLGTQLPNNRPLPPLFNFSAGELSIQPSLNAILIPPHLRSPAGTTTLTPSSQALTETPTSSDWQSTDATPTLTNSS
Activity calls are given as the source filed them.
The categories you may choose from are T (active), F (inactive)

molecule | system_under_test | class_label
COc1cc2ncnc(Nc3ccc(F)c(Cl)c3)c2cc1NC(=O)/C=C/CN1CCCCC1 [DACOMITINIB ANHYDROUS] | Glycogen synthase kinase-3 alpha (Homo sapiens) | F
CC(C)CC(=O)Nc1[nH]nc2c1CN(C(=O)C1CCN(C)CC1)C2(C)C | Glycogen synthase kinase-3 alpha (Homo sapiens) | T
COc1ccc2c(OCc3nnc4ccc(-c5ccccc5)nn34)ccnc2c1 | Glycogen synthase kinase-3 alpha (Homo sapiens) | F

Problem: What did the test return for CCc1nc(C(N)=O)c(Nc2ccc(N3CCC(N4CCN(C)CC4)CC3)c(OC)c2)nc1NC1CCOCC1 ?
Result: F

Problem: What did the test return for C=CCN(/C=C1/C(=O)O[C@H](COC)[C@@]2(C)C1=C(O)C(=O)C1=C2[C@H](OC(C)=O)C[C@]2(C)C(=O)CC[C@@H]12)CC=C ?
Result: F
